- assayTarget: T1, Biotin-huCGRPaSA (human, not fully specified; biotin (position not given))
- T1 construct: exact construct ('aSA') not explained; also called Biotin CGRPaSA; full-length (1-37) CGRP
- T1 peptide: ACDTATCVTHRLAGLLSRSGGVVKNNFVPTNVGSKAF
- testProtocol: ELISA, supernatant; relative to chimeric C245
parameter: Relative binding activity, % (%)

{"binder": "hu9 (antibody, V domains shown, 1B2 HC-1/2B8 LC2-1) VH: QVQLVQSGAEVKKPGASVKVSCKASGYTFTDYNMHWVRQAPGQGLEWMGYIFPYNGVAVYNRKFRSRVTLTIDTSSSTAYMELRSLRSDDTAVYYCAREGLGGYWGQGTLVTVSS VL: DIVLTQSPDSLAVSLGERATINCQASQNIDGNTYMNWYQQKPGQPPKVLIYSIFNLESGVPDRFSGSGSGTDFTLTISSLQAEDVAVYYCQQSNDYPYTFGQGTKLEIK", "resultUnits": "%", "reportedValue": 45}
{"binder": "hu221 (antibody, V domains shown, 3H10 HC-2/3H10 LC2-2) VH: QVQLVQSGAEVKKPGASVKVSCKASGYTFTDYNMHWVRQAPGQGLEWMGYIYPYNGHTVYNQKFRNRVTLTVDTSSSTAYMELRSLRSDDTAVYYCAREGLGGYWGQGTLVTVSS VL: DIQLTQSPSSLSASVGDRVTITCKASQNIDYGGYSYMNWYQQKPGKAPKVLIYSVFNLESGVPSRFSGSGSGTDFTLTISSLQPEDFATYYCQQSNEAPYTFGQGTKLEIK", "resultUnits": "%", "reportedValue": 24}
{"binder": "hu213 (antibody, V domains shown, 3H10 HC-2/1F5 LC1-1) VH: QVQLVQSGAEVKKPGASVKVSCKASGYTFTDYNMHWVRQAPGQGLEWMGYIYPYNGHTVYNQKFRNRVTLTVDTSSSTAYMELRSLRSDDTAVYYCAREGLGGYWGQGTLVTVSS VL: EIVLTQSPATLSLSPGERATLSCKASQNIDFDGYAYMNWYQQKPGQAPRVLIYSVFNLESGIPARFSGSGSGTDFTLTISSLEPEDFAVYYCQQSHEVPYTFGQGTKLEIK", "resultUnits": "%", "reportedValue": 38}

Origin of the recorded values: patent US20260125454A1
